- System: MDA-MB-468 breast
- Method: NCI tumour cell line growth inhibition, 48 h
Form field: GI50 (one value per entry).

See these solved cases before continuing.
• CCCN(CCC)c1ccc(C=O)cc1 = 16.4 µM
• CC(C)c1ccc2c(N=Nc3ccc(S(N)(=O)=O)cc3)c(O)[nH]c2c1 = 7.76 µM
• O=C(O)c1ccc(-c2ccc(/C=N/NC(=O)c3[nH]c4ccc(Br)cc4c3-c3ccccc3)o2)cc1 = 19.5 µM
• Nc1ncnc2c1c(-c1cccc(OCc3ccccc3)c1)cn2C1CC(CN2CCCC2)C1 (stereo unspecified) = 1.38 µM
• COc1ccc(C(=O)Nc2ncc(Cc3ccccc3Cl)s2)cc1 = 0.353 µM

Now consider a different compound.
Enquiry: Given the compound O=C(c1ccccc1)c1ccc(Cl)c([N+](=O)[O-])c1 , what is its reported GI50?
Return: 2.16 µM
